Molecular target: Kir2.1 (Homo sapiens)
Construct: host or cells: HEK293 or CHO
Sequence (P63252 whole entry): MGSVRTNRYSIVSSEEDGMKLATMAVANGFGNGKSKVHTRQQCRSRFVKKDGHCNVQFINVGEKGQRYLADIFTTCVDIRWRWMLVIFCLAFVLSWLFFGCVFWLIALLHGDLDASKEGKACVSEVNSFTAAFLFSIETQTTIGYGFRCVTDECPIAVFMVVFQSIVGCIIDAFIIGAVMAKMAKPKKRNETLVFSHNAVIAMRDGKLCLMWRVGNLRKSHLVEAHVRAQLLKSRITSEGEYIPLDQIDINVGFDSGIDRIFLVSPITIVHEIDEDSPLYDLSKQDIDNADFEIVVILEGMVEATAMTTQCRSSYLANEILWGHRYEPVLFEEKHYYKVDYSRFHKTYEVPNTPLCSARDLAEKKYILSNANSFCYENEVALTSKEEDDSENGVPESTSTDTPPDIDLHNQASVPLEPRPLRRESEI
Test: Ion channel panel (IonWorks Barracuda): Kir2.1
Format: cell-based
Details: peptide at 20 μM; 100% = no change, <100% = inhibition
Please respond with reported Activity of Kir2.1 with peptide (percentage of the reference compound) for every item in the list.

SUBSTANCE: 16 (GSQFCGTNGKPCVNGQCCGALRCVVTYHYADGVCLKMNP) [compound 16]
OBSERVED: 92%
//
SUBSTANCE: 4 (GSSCAKPRENCNRMNILCCRGECVCPTFGDCFCYGD) [compound 4]
OBSERVED: 90%

Proceed to the following item.
Reported Activity of Kir2.1 with peptide (percentage of the reference compound) for 24 (GSSCAKPGEMCMRIKCCDGQCGCNRGTGRCFCK) [compound 24] : what is it? 90%

###

Biological target: Nav1.5 (Homo sapiens, UniProt Q14524)
Sequence (Q14524 whole entry): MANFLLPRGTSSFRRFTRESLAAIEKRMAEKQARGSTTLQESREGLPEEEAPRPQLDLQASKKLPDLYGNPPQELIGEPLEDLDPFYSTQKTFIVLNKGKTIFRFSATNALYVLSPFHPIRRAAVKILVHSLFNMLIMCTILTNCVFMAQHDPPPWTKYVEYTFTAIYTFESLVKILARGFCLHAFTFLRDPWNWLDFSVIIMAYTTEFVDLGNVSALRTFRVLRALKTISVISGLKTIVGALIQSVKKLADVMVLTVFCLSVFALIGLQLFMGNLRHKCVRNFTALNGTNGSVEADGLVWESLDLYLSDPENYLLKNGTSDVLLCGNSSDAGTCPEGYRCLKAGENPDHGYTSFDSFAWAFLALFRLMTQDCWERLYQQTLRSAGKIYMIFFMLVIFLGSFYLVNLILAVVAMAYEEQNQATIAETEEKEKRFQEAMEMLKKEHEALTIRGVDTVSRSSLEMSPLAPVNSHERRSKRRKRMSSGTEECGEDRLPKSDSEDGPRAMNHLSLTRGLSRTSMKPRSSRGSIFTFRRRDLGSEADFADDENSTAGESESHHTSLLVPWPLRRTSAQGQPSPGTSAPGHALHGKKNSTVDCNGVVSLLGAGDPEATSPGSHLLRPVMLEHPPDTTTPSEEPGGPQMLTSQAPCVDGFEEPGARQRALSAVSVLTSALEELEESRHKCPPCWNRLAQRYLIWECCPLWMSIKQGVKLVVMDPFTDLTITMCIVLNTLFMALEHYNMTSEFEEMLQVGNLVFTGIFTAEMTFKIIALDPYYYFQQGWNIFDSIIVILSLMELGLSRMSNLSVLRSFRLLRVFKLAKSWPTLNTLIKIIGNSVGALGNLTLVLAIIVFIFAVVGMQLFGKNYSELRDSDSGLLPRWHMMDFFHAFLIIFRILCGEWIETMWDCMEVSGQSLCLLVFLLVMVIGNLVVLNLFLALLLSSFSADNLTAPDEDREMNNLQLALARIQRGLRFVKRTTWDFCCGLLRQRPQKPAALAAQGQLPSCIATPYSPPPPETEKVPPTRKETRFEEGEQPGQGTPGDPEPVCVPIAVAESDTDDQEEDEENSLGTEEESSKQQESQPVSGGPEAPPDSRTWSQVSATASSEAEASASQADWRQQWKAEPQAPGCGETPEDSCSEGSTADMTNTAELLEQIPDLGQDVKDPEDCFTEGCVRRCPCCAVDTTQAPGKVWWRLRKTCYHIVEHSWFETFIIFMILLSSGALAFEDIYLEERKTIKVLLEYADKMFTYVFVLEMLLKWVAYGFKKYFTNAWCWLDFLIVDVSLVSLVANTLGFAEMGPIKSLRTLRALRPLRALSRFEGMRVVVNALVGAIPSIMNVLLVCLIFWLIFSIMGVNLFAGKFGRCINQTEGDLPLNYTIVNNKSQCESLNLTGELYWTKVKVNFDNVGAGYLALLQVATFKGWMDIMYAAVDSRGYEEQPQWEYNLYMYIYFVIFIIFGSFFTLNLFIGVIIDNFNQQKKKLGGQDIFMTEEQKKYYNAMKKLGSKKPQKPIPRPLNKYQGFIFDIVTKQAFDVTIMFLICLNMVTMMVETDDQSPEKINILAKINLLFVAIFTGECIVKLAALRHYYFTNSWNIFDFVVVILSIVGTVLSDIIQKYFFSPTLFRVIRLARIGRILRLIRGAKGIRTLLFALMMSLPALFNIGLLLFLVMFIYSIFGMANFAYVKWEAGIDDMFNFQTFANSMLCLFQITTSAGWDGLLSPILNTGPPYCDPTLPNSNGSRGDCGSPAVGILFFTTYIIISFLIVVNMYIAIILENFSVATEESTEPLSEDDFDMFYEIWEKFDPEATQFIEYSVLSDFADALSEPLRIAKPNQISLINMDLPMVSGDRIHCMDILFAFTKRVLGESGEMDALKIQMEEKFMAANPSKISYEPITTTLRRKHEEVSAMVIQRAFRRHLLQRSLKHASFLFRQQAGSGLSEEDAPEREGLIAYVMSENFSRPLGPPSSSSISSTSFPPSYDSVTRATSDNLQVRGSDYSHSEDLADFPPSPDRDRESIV
Assay: in vitro
Conditions: peptide at 0.2 μM; second of two Nav1.5 columns (probably TP2); 100% = no change
Note to self: values exactly at 90% are 1 (yes). So Activity of Nav1.5 with peptide, expressed as a percentage of the reference compound at or above 90% is 1 (yes), below is 0 (no).

SUBSTANCE: 2 (GSEVIRCSGSKQCYGPCKQQTGCTNSKCMNKVCKCYGCG) [compound 2]
CLASS_LABEL: 1 (yes)
//
SUBSTANCE: 27 (GSACQFWSCNSSCISRGYRQGYCWGIQYKYCQCQ) [compound 27]
CLASS_LABEL: 1 (yes)
//
SUBSTANCE: 21 (GSAEIIRCSGTRECYAPCQKLTGCLNAKCMNKACKCYGCV) [compound 21]
CLASS_LABEL: 1 (yes)
//
SUBSTANCE: 25 (GSACLAEYQKCEGSTVPCCPGLSCSAGRFRKTKLCTK) [compound 25]
CLASS_LABEL: 0 (no)

Continue with the substance presented below.
Reported Activity of Nav1.5 with peptide, expressed as a percentage of the reference compound reaches at least 90% for 36 (GSAQEPVKGPVSTKPGSCPIILIRCAMLNPPNRCLKDTDCPGIKKCCEGSCGMACFVPQ) [compound 36] ? 1 (yes)

###

Target: NR2A (Homo sapiens, UniProt Q12879)
Construct: host or cells: HEK293 or CHO
Sequence (Q12879 23-1464, other chains not shown): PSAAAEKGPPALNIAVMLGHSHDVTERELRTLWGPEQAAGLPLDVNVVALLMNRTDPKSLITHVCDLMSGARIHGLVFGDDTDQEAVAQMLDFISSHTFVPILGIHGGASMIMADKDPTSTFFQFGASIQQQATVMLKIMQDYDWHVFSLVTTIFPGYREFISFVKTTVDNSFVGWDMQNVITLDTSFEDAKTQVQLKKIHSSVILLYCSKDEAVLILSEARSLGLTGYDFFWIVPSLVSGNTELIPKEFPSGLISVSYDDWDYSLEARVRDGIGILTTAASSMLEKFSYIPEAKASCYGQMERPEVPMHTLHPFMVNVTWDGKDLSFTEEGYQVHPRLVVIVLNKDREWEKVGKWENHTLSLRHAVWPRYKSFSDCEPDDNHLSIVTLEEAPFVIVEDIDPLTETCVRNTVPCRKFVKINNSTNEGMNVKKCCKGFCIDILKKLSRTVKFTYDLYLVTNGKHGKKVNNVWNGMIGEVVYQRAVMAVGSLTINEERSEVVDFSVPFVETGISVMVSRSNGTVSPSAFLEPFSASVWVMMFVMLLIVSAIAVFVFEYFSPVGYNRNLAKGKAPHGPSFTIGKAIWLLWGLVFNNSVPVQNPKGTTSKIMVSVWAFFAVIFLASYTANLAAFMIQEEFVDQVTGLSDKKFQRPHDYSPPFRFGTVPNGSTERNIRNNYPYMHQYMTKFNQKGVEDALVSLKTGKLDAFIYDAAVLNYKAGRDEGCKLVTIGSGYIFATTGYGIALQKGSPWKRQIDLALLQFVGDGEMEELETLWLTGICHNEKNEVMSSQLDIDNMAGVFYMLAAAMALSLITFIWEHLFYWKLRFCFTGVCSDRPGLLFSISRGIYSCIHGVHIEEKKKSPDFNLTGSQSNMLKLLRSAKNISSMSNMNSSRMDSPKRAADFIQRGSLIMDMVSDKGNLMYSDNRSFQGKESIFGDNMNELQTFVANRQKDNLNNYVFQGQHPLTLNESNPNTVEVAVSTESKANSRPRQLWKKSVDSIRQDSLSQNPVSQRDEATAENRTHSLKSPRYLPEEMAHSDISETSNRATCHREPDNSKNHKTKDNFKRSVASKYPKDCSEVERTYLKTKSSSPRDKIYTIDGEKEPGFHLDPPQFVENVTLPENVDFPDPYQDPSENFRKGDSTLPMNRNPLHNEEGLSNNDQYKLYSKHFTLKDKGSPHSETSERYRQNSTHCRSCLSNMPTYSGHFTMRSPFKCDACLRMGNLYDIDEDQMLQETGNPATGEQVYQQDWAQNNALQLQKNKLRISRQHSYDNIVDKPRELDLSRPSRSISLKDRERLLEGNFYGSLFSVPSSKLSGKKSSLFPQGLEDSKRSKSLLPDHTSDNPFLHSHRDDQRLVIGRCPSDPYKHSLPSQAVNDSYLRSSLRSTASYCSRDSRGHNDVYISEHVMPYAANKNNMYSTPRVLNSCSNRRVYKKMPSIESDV
Experiment: Ion channel panel (IonWorks Barracuda): NR2A
Type: cell-based
Conditions: peptide at 20 μM; 100% = no change, <100% = inhibition
REPORTED_ENDPOINT: Activity of NR2A with peptide (percentage of the reference compound) (%)
One number for each entry, in %.

The examples below pair each entry with its known result.
SUBSTANCE: 23 (GSCIGEGVPCDENDPRCCFGLVCLKPTLHGIWYKSYYCYKK) [compound 23]
TGT: NR2A (Homo sapiens, UniProt Q12879)
OBSERVED: 89

SUBSTANCE: 21 (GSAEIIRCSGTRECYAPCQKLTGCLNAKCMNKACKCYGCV) [compound 21]
TGT: NR2A (Homo sapiens, UniProt Q12879)
OBSERVED: 103

SUBSTANCE: 12 (GSNFKVEGACSKPCRKYCIDKGARNGKCINGRCHCYY) [compound 12]
TGT: NR2A (Homo sapiens, UniProt Q12879)
OBSERVED: 91

Count: 2. Required value per item: Activity of NR2A with peptide (percentage of the reference compound).
1. 32 (GSQDKCKKVYENYPVSKCQLANQCNYDCKLDKHARSGECFYDEKRNLQCICDYCEY) [compound 32]
2. 2 (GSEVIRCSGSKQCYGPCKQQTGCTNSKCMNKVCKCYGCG) [compound 2]

1. 110
2. 95

Kindly give each listed record's Activity of NR2A with peptide (percentage of the reference compound).
1. 3 (GSSEKDCIKHLQRCRENKDCCSKKCSRRGTNPEKRCR) [compound 3]
2. 26 (GSVVIGQRCYRSPDCYSACKKLVGKATGKCTNGRCDC) [compound 26]
3. 10 (GSQVQTNVKCQGGSCASVCRREIGVAAGKCINGKCVCYRN) [compound 10]

1. 100
2. 114
3. 65

###

Target: Nav1.7 (Homo sapiens)
Construct: host or cells: HEK293 or CHO
Assay: cell-based
Type: cell-based
Settings: peptide at 0.2 μM; first of two Nav1.7 columns (probably TP1); 100% = no change
Give measured Activity of Nav1.7 with peptide, expressed as a percentage of the reference compound for each item. Keep answers brief.
Give bare numbers, in %.

Guide cases for Activity of Nav1.7 with peptide, expressed as a percentage of the reference compound, answers given:
SUBSTANCE: 38 (GSGIGDPVTCLKSGAICHPVFCPRRYKQIGTCGLPGTKCCKKP) [compound 38]
OBSERVED: 83

SUBSTANCE: 13 (GSQKILSNRCNNSSECIPHCIRIFGTRAAKCINRKCYCYP) [compound 13]
OBSERVED: 61

Consider the additional substance presented here.
Activity of Nav1.7 with peptide, expressed as a percentage of the reference compound lookup needed for 26 (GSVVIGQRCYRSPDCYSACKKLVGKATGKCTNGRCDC) [compound 26] , thanks. 81

###

Target: Nav1.5 (Homo sapiens, UniProt Q14524)
Test: in vitro
Conditions: peptide at 20 μM; first of two Nav1.5 columns (probably TP1); 100% = no change
REPORTED_ENDPOINT: Activity of Nav1.5 with peptide (percentage of the reference compound) (%)
Numbers only, in %.

// below: answered substances
SUBSTANCE: 32 (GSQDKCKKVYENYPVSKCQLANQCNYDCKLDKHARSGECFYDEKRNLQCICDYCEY) [compound 32]
TGT: Nav1.5 (Homo sapiens, UniProt Q14524)
UNITS_LABEL: %
OBSERVED: 90

SUBSTANCE: 25 (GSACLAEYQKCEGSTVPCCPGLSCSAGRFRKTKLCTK) [compound 25]
TGT: Nav1.5 (Homo sapiens, UniProt Q14524)
UNITS_LABEL: %
OBSERVED: 88

SUBSTANCE: 17 (GSRPTDIKCSASYQCFPVCKSRFGKTNGRCVNGLCDCF) [compound 17]
TGT: Nav1.5 (Homo sapiens, UniProt Q14524)
UNITS_LABEL: %
OBSERVED: 95

SUBSTANCE: 19 (GSQFTDVKCTGSKQCWPVCKQMFGKPNGKCMNGKCRCYS) [compound 19]
TGT: Nav1.5 (Homo sapiens, UniProt Q14524)
UNITS_LABEL: %
OBSERVED: 117

SUBSTANCE: 27 (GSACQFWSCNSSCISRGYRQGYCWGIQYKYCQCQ) [compound 27]
TGT: Nav1.5 (Homo sapiens, UniProt Q14524)
UNITS_LABEL: %
OBSERVED: 104

SUBSTANCE: 24 (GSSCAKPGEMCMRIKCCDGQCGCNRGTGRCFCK) [compound 24]
TGT: Nav1.5 (Homo sapiens, UniProt Q14524)
UNITS_LABEL: %
OBSERVED: 99

Look at each substance and report its Activity of Nav1.5 with peptide (percentage of the reference compound).
1. 26 (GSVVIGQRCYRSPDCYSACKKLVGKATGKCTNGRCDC) [compound 26]
2. 20 (GSQIDTNVKCSGSSKCVKICIDRYNTRGAKCINGRCTCYP) [compound 20]

[90, 102]

Quick request: Activity of Nav1.5 with peptide (percentage of the reference compound) for each listed item, please.
1. 9 (GSGCFGYKCDYYKGCCSGYVCSPTWKWCVRPGPGR) [compound 9]
2. 5 (GSGVPINVKCRGSRDCLDPCKKAGMRFGKCINSKCHCTP) [compound 5]
3. 38 (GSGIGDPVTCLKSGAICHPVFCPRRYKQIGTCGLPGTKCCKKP) [compound 38]
4. 22 (GSSDYCSNDFCFFSCRRDRCARGDCENGKCVCKNCHLN) [compound 22]
5. 14 (GSDRDSCIDKSRCSKYGYYQECQDCCKKAGHNGGTCMFFKCKCA) [compound 14]

[109, 103, 107, 112, 94]

###

Target: Nav1.7 (Homo sapiens, UniProt Q15858)
Construct: host or cells: HEK293 or CHO
Test: cell-based
Type: cell-based
Details: peptide at 20 μM; first of two Nav1.7 columns (probably TP1); 100% = no change
For each entry below, report its Activity of Nav1.7 with peptide (percentage of the reference compound) value.
Numbers only, in %.

Known Activity of Nav1.7 with peptide (percentage of the reference compound) results, listed for orientation:
SUBSTANCE: 29 (GSVFINVKCRGSPECLPKCKEAIGKSAGKCMNGKCKCYP) [compound 29]
UNITS_LABEL: %
OBSERVED: 67

SUBSTANCE: 23 (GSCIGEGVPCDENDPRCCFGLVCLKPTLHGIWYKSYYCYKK) [compound 23]
UNITS_LABEL: %
OBSERVED: 65

SUBSTANCE: 17 (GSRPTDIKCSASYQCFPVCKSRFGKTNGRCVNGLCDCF) [compound 17]
UNITS_LABEL: %
OBSERVED: 75

SUBSTANCE: 30 (GSQVSTNKKCSNTSQCYKTCEKVVGVAAGKCMNGKCICYP) [compound 30]
UNITS_LABEL: %
OBSERVED: 84

SUBSTANCE: 13 (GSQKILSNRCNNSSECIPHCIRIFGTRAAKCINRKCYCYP) [compound 13]
UNITS_LABEL: %
OBSERVED: 71

SUBSTANCE: 26 (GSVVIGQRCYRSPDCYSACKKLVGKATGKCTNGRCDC) [compound 26]
UNITS_LABEL: %
OBSERVED: 73

SUBSTANCE: 39 (GSGVPTDVKCRGSPQCIQPCKDAGMRFGKCMNGKCHCTPK) [compound 39]
UNITS_LABEL: %
OBSERVED: 108

SUBSTANCE: 19 (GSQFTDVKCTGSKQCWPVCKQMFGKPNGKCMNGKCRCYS) [compound 19]
UNITS_LABEL: %
OBSERVED: 121

Please look at the items below and tell me Activity of Nav1.7 with peptide (percentage of the reference compound) for each one, in order.
1. 27 (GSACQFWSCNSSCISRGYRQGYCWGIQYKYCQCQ) [compound 27]
2. 34 (GGYSRCQLQGFNCVVRSYGLPTIPCCRGLTCRSYFPGSTYGRCQRY) [compound 34]
3. 5 (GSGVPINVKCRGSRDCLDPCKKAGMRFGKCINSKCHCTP) [compound 5]
4. 11 (GSGDCLPHLKRCKENNDCCSKKCKRRGANPEKRCR) [compound 11]
5. 12 (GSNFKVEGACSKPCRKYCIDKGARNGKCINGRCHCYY) [compound 12]

97
86
79
96
74
